Data origin: PubChem BioAssay AID449762

# System: M. tuberculosis H37Rv growth inhibition, 7H9 media
# Procedure text: M. tuberculosis growth inhibition, HTS (AID 449762);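 further: bacterial growth assessed after seven days of incubation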
# Experimental parameters: measured here: IC90 growth inhibition
Records with an inconclusive call do not appear.
Okay, here is how we bin by IC90: lower segment: < 10 µM; middle segment: ≥ 10 µM and < 40 µM; upper segment: ≥ 40 µM

Answered cases to consult:
[[record]]
molecule = "N#CC(C(=O)NCc1ccco1)c1nc2ccccc2nc1N1CCOCC1 (stereo not given)"
tested_target = "M. tuberculosis H37Rv growth inhibition, 7H9 media"
class_name = "upper segment"

[[record]]
molecule = "Cc1nc(N2CCC(C)CC2)c2oc3ccccc3c2n1"
tested_target = "M. tuberculosis H37Rv growth inhibition, 7H9 media"
class_name = "upper segment"

[[record]]
molecule = "c1nc2n(n1)C1=C(CCCC1)C1(CCCCC1)N2"
tested_target = "M. tuberculosis H37Rv growth inhibition, 7H9 media"
class_name = "middle segment"


Okay, now this molecule:
Any idea which band "CC(C)n1cnc2c(NCc3ccccc3)cc(Cc3ccc(F)cc3)cc21" is in? middle segment

====

Please respond with reported log10(IC90) for every item in the list.
# Tested on: M. tuberculosis H37Rv growth inhibition, 7H9 media
# Procedure text: M. tuberculosis growth inhibition, HTS (AID 449762);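 further: bacterial growth assessed after seven days of incubation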
# Experimental parameters: measured here: IC90 growth inhibition
Inconclusive results are not listed.
All values: base-10 log of IC90 in µM.

[[record]]
compound = "COc1cc2ccccc2cc1C(=O)Nc1ccc(Cc2ccncc2)cc1"
measured = 1.23

[[record]]
compound = "CC(C(c1ccc2c(c1)OCO2)c1c(N)n(C)c(=O)n(C)c1=O)[N+](=O)[O-] (stereo unspecified)"
measured = 0.78


Hi there! I need log10(IC90) for each item below, if you can.
1. COC(=O)[C@@H](NC(=O)c1cc(COc2cncc(Cl)c2)on1)c1ccccc1
2. COc1ccccc1Nc1nc(N)nc(CCl)n1
3. O=C(Nc1ccc(OC(F)(F)F)cc1)c1ccc2c(c1)no[n+]2[O-]
4. COc1ccc(C2=CC(c3c(C)nn(-c4ccccc4)c3Cl)n3nnnc3N2)cc1OC (stereo unspecified)
5. O=Nc1c2nc3ccccc3n(O)c-2c2ccccc12
6. COc1cccc(C(=O)NC2CC3CCCC(C2)N3CC(=O)Nc2ccc(N(C)C)cc2)c1 (stereo unspecified)

1. 0.60
2. 0.95
3. -0.70
4. 1.90
5. 1.20
6. 1.39

====

# Test system: M. tuberculosis H37Rv growth inhibition, 7H9 media
# Procedure text: M. tuberculosis growth inhibition, HTS (AID 449762);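 further: bacterial growth assessed after seven days of incubation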
# Experimental parameters: measured here: IC90 growth inhibition
Inconclusive results are not listed.
Simple rule here: IC90 less than 30 µM is YES, otherwise NO.

Answered cases to consult:
[[record]]
compound = "CCOC(=O)c1[nH]c(CN2CCN(c3ccc(OC)cc3)CC2)c(C(=O)OCC)c1C"
tested_target = "M. tuberculosis H37Rv growth inhibition, 7H9 media"
class_name = "YES"

[[record]]
compound = "Nc1ccc(N=Nc2ccccc2)c(N)n1"
tested_target = "M. tuberculosis H37Rv growth inhibition, 7H9 media"
class_name = "NO"

[[record]]
compound = "CCOC(=O)N1CCC(n2c(SCC(=O)OCc3ccccc3)nc3ccsc3c2=O)CC1"
tested_target = "M. tuberculosis H37Rv growth inhibition, 7H9 media"
class_name = "NO"

[[record]]
compound = "Oc1ccc(/C=N/n2c3ccccc3c3ccccc32)cc1"
tested_target = "M. tuberculosis H37Rv growth inhibition, 7H9 media"
class_name = "NO"

[[record]]
compound = "CC(C)C(=O)Nc1cccc(-c2nc3ccccc3c(=O)o2)c1"
tested_target = "M. tuberculosis H37Rv growth inhibition, 7H9 media"
class_name = "NO"


Please let me know if CN1CCN(C2Cc3ccccc3Sc3cc(C(F)(F)F)ccc32)CC1 (stereo unspecified) shows IC90 below 30 µM. YES

Please let me know if CC(C)(C)c1ccc(Cn2c(=N)n(CC(O)c3ccco3)c3ccccc32)cc1 (stereo unspecified) shows IC90 below 30 µM. YES

Please let me know if "Cc1ccc(S(=O)(=O)N2CCC(C(=O)OCc3ccccc3)CC2)cc1C" shows IC90 below 30 µM. NO

Please let me know if "CC(C)Cc1nc2oc3c(N4CCN(CCO)CC4)ncnc3c2c2c1CCCC2" shows IC90 below 30 µM. YES

Please let me know if "c1ccc(Cn2c3ccccc3c3nnc(SCCN4CCCCC4)nc32)cc1" shows IC90 below 30 µM. NO

Please let me know if "CCOC(=O)N/N=C(/C)c1ccc([N+](=O)[O-])o1" shows IC90 below 30 µM. YES

====

# Test system: M. tuberculosis H37Rv growth inhibition, 7H9 media
# Procedure text: M. tuberculosis growth inhibition, HTS (AID 449762);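 further: bacterial growth assessed after seven days of incubation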
# Experimental parameters: measured here: IC90 growth inhibition
Results filed as inconclusive are left out.
Please respond with reported log10 of IC90 for every item in the list.
All values: base-10 log of IC90 in µM.

[[record]]
compound = "c1ccc(-c2n[nH]c(-c3ccccn3)n2)cc1"
measured = 1.29

[[record]]
compound = "O=c1c(C=NCCN2CCNCC2)c(O)n(C2CCCCC2)c(=O)n1C1CCCCC1"
measured = 1.45

[[record]]
compound = "CC(=O)c1ccc(NC(=O)c2cc(CC(C)C)on2)cc1"
measured = 1.16

[[record]]
compound = "C#CCOCCOCCOCCNc1nc(N2CCN(C(=O)C(Cc3ccc(O)cc3)n3cc(C(N)CC(C)C)nn3)CC2)nc(N2CCN(C(=O)C(Cc3cc4ccccc4[nH]3)n3cc(C(N)Cc4ccc(O)cc4)nn3)CC2)n1 (stereo not drawn)"
measured = 0.84


Hi there! I need log10 of IC90 for each item below, if you can.
1. Cc1ccc(NC(=O)C2C3/C=C\CCCCC32)cc1C (stereo not drawn)
2. NC(=O)c1cccn1-c1ncc(C(F)(F)F)cc1Cl

[0.52, 1.22]

====

# Tested on: M. tuberculosis H37Rv growth inhibition, 7H9 media
# Procedure text: M. tuberculosis growth inhibition, HTS (AID 449762);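 further: bacterial growth assessed after seven days of incubation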
# Experimental parameters: measured here: IC90 growth inhibition
Results filed as inconclusive are left out.
Result type: IC90

Look over these answered cases.
[[record]]
structure_notation = "CC(C)(C)C(=O)/C(=C\\c1cccc([N+](=O)[O-])c1)n1cncn1"
measured = "1.72 µM"

[[record]]
structure_notation = "Cn1/c(=N/NC(=O)c2cccc(OC(F)F)c2)sc2ccccc21"
measured = "22.7 µM"

[[record]]
structure_notation = "CC(=O)CCSc1ncnc2sc(-c3ccccc3)cc12"
measured = "> 100 µM"

[[record]]
structure_notation = "COc1ccccc1NC(=O)Nc1nc(CC(=O)N2CCN(c3ccccc3F)CC2)cs1"
measured = "> 100 µM"

[[record]]
structure_notation = "Cc1cccc(N2CCN(CC(=O)Nc3nccs3)CC2)c1C"
measured = "58.5 µM"


Continue with the molecule presented below.
Given "COc1cccc(NC(=O)CNC(=O)Cn2cnc3sc4c(c3c2=O)CCCC4)c1" , state its recorded IC90. > 100 µM

====

# Test system: M. tuberculosis H37Rv growth inhibition, 7H9 media
# Procedure text: M. tuberculosis growth inhibition, HTS (AID 449762);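 further: bacterial growth assessed after seven days of incubation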
# Experimental parameters: measured here: IC90 growth inhibition
Records with an inconclusive call do not appear.
Simple rule here: IC90 less than 40 µM is MET, otherwise NOT MET.

Answered cases to consult:
[[record]]
molecule = "CCOC(=O)Cn1c(C)c(Br)c(=O)c2cccc(C)c21"
class_name = "MET"

[[record]]
molecule = "O[C@@H](c1cc(C(F)(F)F)nc2c(C(F)(F)F)cccc12)[C@H]1CCCCN1"
class_name = "MET"

[[record]]
molecule = "c1ccc(-c2nnc(-c3ccccn3)nn2)nc1"
class_name = "MET"


Please let me know if "O=C(Nc1ncc(Cc2ccccc2Cl)s1)C1=NCCN1" shows IC90 below 40 µM. NOT MET

Please let me know if "COC(=O)c1ccc2c(c1O)C(=O)c1ccccc1C2=O" shows IC90 below 40 µM. NOT MET

Please let me know if "Cc1ccc(C(=O)Nc2cccc(C(F)(F)F)c2)cc1Nc1ncnc2nc[nH]c12" shows IC90 below 40 µM. NOT MET

Please let me know if C/C(=N\NC(=O)c1cc2c(s1)CCC(C)C2)c1ccncc1 (stereo unspecified) shows IC90 below 40 µM. NOT MET

====

# Test system: M. tuberculosis H37Rv growth inhibition, 7H9 media
# Procedure text: M. tuberculosis growth inhibition, HTS (AID 449762);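 further: bacterial growth assessed after seven days of incubation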
# Experimental parameters: measured here: IC90 growth inhibition
Records with an inconclusive call do not appear.
Please respond with reported IC90 for every item in the list.
Answers are plain numbers, in µM.

[[record]]
structure_notation = "CCc1ccc(Nc2n[n+](C)c(-c3ccncc3)s2)cc1"
tested_target = "M. tuberculosis H37Rv growth inhibition, 7H9 media"
measured = 51.3

[[record]]
structure_notation = "CCOC(=O)CSc1cc(=O)n(C)c2cc(Cl)ccc12"
tested_target = "M. tuberculosis H37Rv growth inhibition, 7H9 media"
measured = 73.9


Continue with the compound presented below.
Given "O=C(Oc1c(Cl)cc(Cl)c2cccnc12)c1cccs1" , state its recorded IC90. 1.24
